Below, each of the sequences is paired with its reported apparent KD of MS2 coat protein value.
Tested on: MS2 coat protein
experiment: apparent KD of MS2 coat protein; designed switch direction (-1 OFF switch, 1 ON switch): -1; higher = weaker reporter binding
experimental_parameters: input ligand: none
reported_endpoint: apparent KD of MS2 coat protein (nM)

record_sequence	target_desc	reported_endpoint	numeric_readout
GACCGUGCUUAGGAUAUACGUUAGGAGUUGACCGUAGAAGGGAGUACAUGAGGAUCACCCAUGUCACCUACAGC [Eternabot (L2) Solution 75] (Eterna round: R97, puzzle: Exclusion 6)	MS2 coat protein	apparent KD of MS2 coat protein	16.5
GUCCUUUCUGAGGAUAUUAUCCUUUUCGAUUGAUAAGAAGGCAGUACAUGAGGAUCACCCAUGUGGGUUGUCUG [Polaris30] (Eterna round: R97, puzzle: Exclusion 6)	MS2 coat protein	apparent KD of MS2 coat protein	38.2
GUAAUGUCAGGAUAUACUAAUGAUGAAUGAUCAGACAUUAUGUAGAAGGGACAUGAGGAUCACCCAUGUAAUAU [EX4 #4] (Eterna round: R97, puzzle: Exclusion 4)	MS2 coat protein	apparent KD of MS2 coat protein	28.4
UUGUGCACGCUGCGGUCCUACAUGAGGAUCACCCAUGUGGUCUGGUGGCGUGGGUCACCGGACUUGGCUCGUCUUGC [salish99_S_TOV1_R5_059] (Eterna round: R97, puzzle: Sensor, turn-off variant 1)	MS2 coat protein	apparent KD of MS2 coat protein	22.8
GAGUACUCAGGAUAUGCAUGAGUAGUGAUGUAGAGAGUGUGACAUGAGGAUCACCCAUGUAGAAGGGAGGAAUG [Version #1] (Eterna round: R97, puzzle: Exclusion 2)	MS2 coat protein	apparent KD of MS2 coat protein	105
